Provide the reported IC50 of each item.
- testedTarget: T1, αvβ6 integrin (purified) (UniProt P06756 31-992; P18564 22-707)
- T1 construct: Purified integrin captured on plate by anti-αv antibody P2W7; also called purified integrin
- T1 sequence (P06756 31-992, chain 1 of 2): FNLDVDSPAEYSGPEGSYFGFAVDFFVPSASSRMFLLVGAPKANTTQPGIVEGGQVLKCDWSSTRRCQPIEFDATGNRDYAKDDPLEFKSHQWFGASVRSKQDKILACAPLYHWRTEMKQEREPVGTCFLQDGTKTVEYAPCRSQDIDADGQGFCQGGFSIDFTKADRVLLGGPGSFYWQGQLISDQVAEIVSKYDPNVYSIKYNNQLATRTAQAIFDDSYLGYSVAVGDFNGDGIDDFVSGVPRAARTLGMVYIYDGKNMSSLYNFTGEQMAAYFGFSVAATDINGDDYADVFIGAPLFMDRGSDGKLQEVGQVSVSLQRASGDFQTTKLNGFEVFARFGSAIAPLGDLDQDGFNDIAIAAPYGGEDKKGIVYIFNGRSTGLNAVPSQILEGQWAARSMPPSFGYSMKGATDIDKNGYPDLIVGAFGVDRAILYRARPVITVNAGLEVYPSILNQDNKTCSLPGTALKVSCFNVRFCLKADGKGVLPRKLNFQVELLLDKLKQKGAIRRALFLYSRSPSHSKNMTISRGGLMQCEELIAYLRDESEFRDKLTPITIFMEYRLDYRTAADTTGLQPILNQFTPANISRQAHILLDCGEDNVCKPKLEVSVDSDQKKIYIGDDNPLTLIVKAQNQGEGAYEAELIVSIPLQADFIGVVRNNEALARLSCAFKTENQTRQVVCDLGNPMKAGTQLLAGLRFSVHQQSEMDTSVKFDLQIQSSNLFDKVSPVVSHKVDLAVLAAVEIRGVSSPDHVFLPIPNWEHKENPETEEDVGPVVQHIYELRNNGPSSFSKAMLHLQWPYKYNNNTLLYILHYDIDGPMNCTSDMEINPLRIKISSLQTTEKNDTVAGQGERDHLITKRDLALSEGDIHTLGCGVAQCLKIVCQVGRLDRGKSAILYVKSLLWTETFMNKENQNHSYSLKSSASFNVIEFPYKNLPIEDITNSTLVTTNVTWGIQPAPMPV
- T1 sequence (P18564 22-707, chain 2 of 2): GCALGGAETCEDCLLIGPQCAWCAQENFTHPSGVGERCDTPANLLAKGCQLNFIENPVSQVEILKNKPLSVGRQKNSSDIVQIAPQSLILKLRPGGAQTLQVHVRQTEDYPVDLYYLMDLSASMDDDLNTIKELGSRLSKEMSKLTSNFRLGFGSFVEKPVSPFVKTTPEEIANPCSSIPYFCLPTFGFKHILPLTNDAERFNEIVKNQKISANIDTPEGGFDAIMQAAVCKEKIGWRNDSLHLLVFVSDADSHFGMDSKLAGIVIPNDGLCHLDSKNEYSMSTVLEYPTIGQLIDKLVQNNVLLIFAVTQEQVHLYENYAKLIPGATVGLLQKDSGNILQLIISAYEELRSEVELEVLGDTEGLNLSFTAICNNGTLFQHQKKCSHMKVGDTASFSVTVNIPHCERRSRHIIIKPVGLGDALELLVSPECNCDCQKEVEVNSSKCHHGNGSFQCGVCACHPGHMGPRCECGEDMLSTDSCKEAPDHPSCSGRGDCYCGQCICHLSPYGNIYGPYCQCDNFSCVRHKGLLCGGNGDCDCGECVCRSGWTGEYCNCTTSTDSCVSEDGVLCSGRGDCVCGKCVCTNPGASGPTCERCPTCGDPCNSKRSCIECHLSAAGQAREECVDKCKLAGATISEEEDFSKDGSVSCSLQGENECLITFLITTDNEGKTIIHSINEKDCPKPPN
- measurementDescription: ELISA, αvβ6 integrin
Write the answer as a number in nM, unit excluded.

Q: // IC50 lookup, key: XGDLTYLKXX (N-terminal fluorobenzoyl (FB); acetyl (Ac) on the side chain of the C-terminal lysine; PEG28 attached to the C-terminal lysine, N-fluorobenzoylated, C-PEGylated variant of ST1-62) [FB-…(Ac)-PEG28]
Ans: 15.5

Q: And for XGDLTYLKX (N-terminal methyl (Me); fluorobenzoyl (FB) on the side chain of the C-terminal lysine, N-methylated variant of ST1-62) [Me-…(FB)] ?
Ans: 500

Q: Further, for XGDLTYLKXX (N-terminal fluorobenzoyl (FB); fluorobenzoyl (FB) on the side chain of the C-terminal lysine; PEG28 attached to the C-terminal lysine, also called ST1-92) [FB-…(FB)-PEG28] ?
Ans: 17.6

Q: Follow-up item: XGDLTYLKX (N-terminal fluorobenzoyl (FB); fluorobenzoyl (FB) on the side chain of the C-terminal lysine, N-fluorobenzoylated variant of ST1-62) [FB-…(FB)]
Ans: 21.9

Q: Now this one: XGDLTYLKX (N-terminal acetyl (Ac); fluorobenzoyl (FB) on the side chain of the C-terminal lysine, N-acetylated variant of ST1-62) [Ac-…(FB)]
Ans: 1600

Q: Okay, and XGDLTYLKX (N-terminal fluorobenzoyl (FB); acetyl (Ac) on the side chain of the C-terminal lysine, N-fluorobenzoylated variant of ST1-62) [FB-…(Ac)] ?
Ans: 4.3

These data points were gathered from patent US20190328910A1.
